- Assay: chemical genetic growth profiling, strain panel (AID 1159580);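 also: tested at 20 µM; growth read once vehicle control cultures reached saturation at 30 °C; 1 = growth at the plate median or of vehicle wells; lower values mean less growth of the strain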
- Experimental Parameters: S. cerevisiae deletion strains, growth OD, locus YDR001C, strain nth1, hits give low values
Out of some 5,500 compounds screened, about 2,000 (36%) were called active. Inconclusive results (about 18%) are left out. This is one part of the list.
Consider the following compounds; for each one, report its normalized growth.
The reply should be a number, written without any unit.

Query: Any idea what normalized growth was measured for O=C1CCCN1CC#CCN1CCCC1 ?
Response: 1.02

Query: Any idea what normalized growth was measured for Cc1cc(/C=C/c2ccc3cc(N(C)C)ccc3[n+]2C)c(C)n1-c1ccccc1 ?
Response: 1.01

Query: Any idea what normalized growth was measured for Clc1ccc(CSC(Cn2ccnc2)c2ccc(Cl)cc2Cl)cc1 (stereo not given) ?
Response: 0.0613

Query: Any idea what normalized growth was measured for Clc1ccc(COC(Cn2ccnc2)c2ccc(Cl)cc2Cl)cc1 (stereo not given) ?
Response: 0.0586

Query: Any idea what normalized growth was measured for CC(=O)Oc1ccc2c(c1)CCC1C2CC[C@]2(C)C(=O)CCC12 (stereo not given in full) ?
Response: 0.985

Query: Any idea what normalized growth was measured for CC(=O)O[C@H]1C[C@@]2(C)[C@@H](C[C@@H](O)C3[C@]2(C)CC[C@H]2[C@H](C)[C@H](O)CC[C@]32C)/C1=C(/CCC=C(C)C)C(=O)O (stereo not given in full) ?
Response: 1

Query: Any idea what normalized growth was measured for CCCn1c(=O)c2[nH]c(C3CCCC3)nc2n(CCC)c1=O ?
Response: 0.986

Query: Any idea what normalized growth was measured for C[C@]12CCC3c4ccc(O)cc4CCC3C1CCC2=O (stereo not given in full) ?
Response: 1.02

Query: Any idea what normalized growth was measured for C=C1C(=O)[C@]23[C@H](O)[C@H]1CC[C@H]2[C@@]12CO[C@]3(O)[C@H](O)[C@@H]1C(C)(C)CC[C@@H]2O ?
Response: 1

Query: Any idea what normalized growth was measured for Clc1ccc(CO/N=C(/Cn2ccnc2)c2ccc(Cl)cc2Cl)c(Cl)c1 ?
Response: 0.0642
